half-life listing for selected compounds.
- Experiment Description: Half life in ICR mouse at 25 mg/kg, po measured upto 24 hrs by HPLC analysis
- Format: ADME, organism-based
- Settings: in vivo
Quantity: half-life

[[record]]
smiles_text = "CC(C)(C)c1ccc(-c2nnc(CNC(=O)c3ccc([N+](=O)[O-])o3)o2)cc1"
recorded_measurement = "0.67 h"

[[record]]
smiles_text = "O=C(Nc1nnc(-c2ccc(Br)cc2)o1)c1ccc([N+](=O)[O-])o1"
recorded_measurement = "4.5 h"


Numbers sourced from ChEMBL document CHEMBL5143540.
